In this section, each of the compounds is paired with its reported MIC.
test system: Streptococcus pneumoniae; assay: Antibacterial activity against Streptococcus pneumoniae ATCC 49619; type: functional

Guide cases for MIC, answers given:
{"columns": ["COMPOUND", "TEST_SYSTEM", "RESULT"],
 "data": [
  ["COc1cccc(OC)c1-c1cn([C@@H]2C(=O)N3[C@@H]2SC(C)(C)[C@@H]3C(=O)O)nn1", "Streptococcus pneumoniae", "> 8 µg/mL"],
  ["CC1(C)S[C@@H]2[C@H](n3cc(C(O)c4ccc(-c5ccncc5)cc4)nn3)C(=O)N2[C@H]1C(=O)[O-].[Na+] (stereo not given in full)", "Streptococcus pneumoniae", "≥ 8 µg/mL"],
  ["CC1(C)S[C@@H]2[C@H](n3cc(-c4cccs4)nn3)C(=O)N2[C@H]1C(=O)O", "Streptococcus pneumoniae", "8 µg/mL"],
  ["CC1(C)S[C@@H]2[C@H](n3cc(-c4cccnc4)nn3)C(=O)N2[C@H]1C(=O)O", "Streptococcus pneumoniae", "> 8 µg/mL"]
]}

Please find the next compound below.
Recorded MIC for CC1(C)S[C@@H]2[C@H](n3cc(-c4ccccn4)nn3)C(=O)N2[C@H]1C(=O)O on Streptococcus pneumoniae was > 8 µg/mL

Where these numbers come from: ChEMBL document CHEMBL1137505
